Test system: ulcer induced by a stress of restraint plus water-immersion
assay.text: Test of ulcer induced by a stress of restraint plus water-immersion
Type: in vivo, ddY male mouse
experimental.conditions: 7 h; mouse, 30 mg/kg oral, 15 minutes before the load of the stress; hydrochloride salts; read-out: Percentage of inhibition of ulcer formation
Method: With respect to anti-ulcer effect of the compounds having the general formula (I), there were carried out a test of ulcer induced by pylorus-ligation, which ulcer is induced mainly due to offensive factors; a test of ulcer induced by hydrochloric acid/ethanol, which ulcer is induced mainly due to defensive factors such as mucosal blood flow and mucus; and a test of ulcer induced by a stress of restraint plus water-immersion, which ulcer is induced due to both of offensive and defensive factors. […]
metric: inhibition in vivo at 30 mg/kg (%)
State the answer as a number, implicitly in %.

In [3]: df
Out[3]:
                                   compound                        measurement_target  endpoint_unit  meas_value
0  CCOC(=O)NCC[S+]([O-])CC(=O)NC/C=C\COc1cccc(CN2CCCCC2)c1 (stereo not drawn)  ulcer induced by a stress of restraint plus water-immersion              %          87
1  NC(N)=Nc1nc(CSCCC(N)=NS(N)(=O)=O)cs1 [famotidine, reference compound]  ulcer induced by a stress of restraint plus water-immersion              %         100
2  O=C(CSCCNC(=O)c1ccccn1)NCCCOc1cccc(CN2CCCCC2)c1  ulcer induced by a stress of restraint plus water-immersion              %          88
3  CNC(=S)NCCSCC(=O)NCCCOc1cccc(CN2CCCCC2)c1  ulcer induced by a stress of restraint plus water-immersion              %          74
4  C=CCOC(=O)NCC[S+]([O-])CC(=O)NC/C=C\COc1cccc(CN2CCCCC2)c1 (stereo not drawn)  ulcer induced by a stress of restraint plus water-immersion              %          73

Let us examine a further case.
I have this compound here, `O=C(CSCCNC(=O)c1ccccc1)NC/C=C\COc1cccc(CN2CCCCC2)c1` , and I need its recorded inhibition in vivo at 30 mg/kg.
93
